Target: E2F8 DBD1-DBD2 (human, UniProt A0AVK6 110-350)
Sequence (A0AVK6 110-350): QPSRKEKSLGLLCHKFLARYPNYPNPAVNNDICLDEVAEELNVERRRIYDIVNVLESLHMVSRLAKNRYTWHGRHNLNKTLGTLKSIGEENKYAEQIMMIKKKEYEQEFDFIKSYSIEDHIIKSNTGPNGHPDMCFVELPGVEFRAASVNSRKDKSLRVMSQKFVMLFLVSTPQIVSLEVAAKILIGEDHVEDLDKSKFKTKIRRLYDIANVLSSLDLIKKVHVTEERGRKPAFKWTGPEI
Assay: ITC; 20 C; ITC: 20 mM HEPES pH 7.5, 150 mM NaCl, 5% glycerol, TCEP (printed 0.5 M), 20 C; 0.1 mM protein into 0.012-0.016 mM DNA
pKd: −log10 of the molar value.

binder | pKd
E2F8 SELEX-preferred site GGCGGG (dsDNA) DNA 1: TTTTTGGCGGGAAAA DNA 2: TTTTCCCGCCAAAAA | ~6.59

From: paper PMC4686757
